# SYSTEM: T1, human TREM2 (human) (UniProt Q9NZC2)
# T1 sequence (looked up): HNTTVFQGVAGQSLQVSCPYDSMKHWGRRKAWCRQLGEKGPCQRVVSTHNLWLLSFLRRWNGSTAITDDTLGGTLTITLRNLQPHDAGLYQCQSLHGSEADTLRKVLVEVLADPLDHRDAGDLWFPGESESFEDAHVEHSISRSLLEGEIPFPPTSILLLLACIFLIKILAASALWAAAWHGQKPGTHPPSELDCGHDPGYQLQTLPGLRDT
# ASSAY SUMMARY: 1st screen, 10 nM Ab
OBSERVATION TYPE: Binding Signal (fold over 6E7 parental antibody) (fold)
Dear colleague, please return just the value in fold, with no unit written.

6E7 variant V85 (antibody, V domains shown) VH: EVQLVQSGAEVKKPGESLKISCKGSGYSFRSYWIAWVRQMPGKGLEWMGTIYPGDSDTRYSPSFQGQVTISADKSISTAYLQWSSLKASDTAMYFCARSRTFYYDSSDYFDYWGQGTLVTVSS VL: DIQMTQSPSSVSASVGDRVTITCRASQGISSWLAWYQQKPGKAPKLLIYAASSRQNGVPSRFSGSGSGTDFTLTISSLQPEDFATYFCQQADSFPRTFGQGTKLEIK
5.41
6E7 variant V15 (antibody, V domains shown) VH: EVQLVQSGAEVKKPGESLKISCKGSGYSFASYWIAWVRQMPGKGLEWMGTIYPGDSDTRYSPSFQGQVTISADKSISTAYLQWSSLKASDTAMYFCARSRTFYYDSSDYFDYWGQGTLVTVSS VL: DIQMTQSPSSVSASVGDRVTITCRASQGISSWLAWYQQKPGKAPKLLIYAASWLQNGVPSRFSGSGSGTDFTLTISSLQPEDFATYFCQQADSYPRTFGQGTKLEIK
5.23
6E7 variant V86 (antibody, V domains shown) VH: EVQLVQSGAEVKKPGESLKISCKGSGYSFGSYWLAWVRQMPGKGLEWMGIIYPGDSDTRYSPSFEGQVTISADKSISTAYLQWSSLKASDTAMYFCARSRTFYYDSSDYFDYWGQGTLVTVSS VL: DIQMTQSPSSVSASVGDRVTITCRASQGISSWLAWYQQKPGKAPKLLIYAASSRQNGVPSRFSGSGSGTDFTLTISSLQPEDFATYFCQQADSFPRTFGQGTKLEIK
4.8
6E7 variant V28 (antibody, V domains shown) VH: EVQLVQSGAEVKKPGESLKISCKGSGYSFQSYWIAWVRQMPGKGLEWMGTIYPGDSDTRYSPSFQGQVTISADKSISTAYLQWSSLKASDTAMYFCARQRTFFYDSSDYFDYWGQGTLVTVSS VL: DIQMTQSPSSVSASVGDRVTITCRASQGISSWLAWYQQKPGKAPKLLIYAASSLQSGVPSRFSGSGSGTDFTLTISSLQPEDFATYFCQQADSLPRTFGQGTKLEIK
3.08

Shifting focus to the binder that follows.
## Input Query: Binding Signal (fold over 6E7 parental antibody); subject: 6E7 variant V49 (antibody, V domains shown) VH: EVQLVQSGAEVKKPGESLKISCKGSGYSFNSYWIAWVRQMPGKGLEWMGTIYPGDSDTRLSPSFQGQVTISADKSISTAYLQWSSLKASDTAMYFCARSRTFYYDSSDYFDYWGQGTLVTVSS VL: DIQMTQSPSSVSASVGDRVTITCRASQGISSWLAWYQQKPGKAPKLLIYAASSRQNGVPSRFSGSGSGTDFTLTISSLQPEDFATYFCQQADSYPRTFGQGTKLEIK
## Output 6.51
